# assay.name: activity coefficient (dimensionless); of the first substance listed, at infinite dilution; xn = mol fraction of the nth substance listed
# measurement.conditions: 358.15 K; 101 kPa; Liquid; Chromatography; x1 = 0
// values below are reported activity coefficient
parameter: activity coefficient

molecule: C1=CCCCC1 [cyclohexene] + COCC[N+]1(C)CCCCC1.O=S(=O)([N-]S(=O)(=O)C(F)(F)F)C(F)(F)F
value.reported: 4.67
--
molecule: c1ccsc1 [thiophene] + COCC[N+]1(C)CCCCC1.O=S(=O)([N-]S(=O)(=O)C(F)(F)F)C(F)(F)F
value.reported: 0.829
--
molecule: Cc1ccc(C)cc1 [1,4-dimethylbenzene] + COCC[N+]1(C)CCCCC1.O=S(=O)([N-]S(=O)(=O)C(F)(F)F)C(F)(F)F
value.reported: 1.16
--
molecule: CCCCO [butan-1-ol] + COCC[N+]1(C)CCCCC1.O=S(=O)([N-]S(=O)(=O)C(F)(F)F)C(F)(F)F
value.reported: 1.85
--
molecule: CCCCCCCCC [nonane] + COCC[N+]1(C)CCCCC1.O=S(=O)([N-]S(=O)(=O)C(F)(F)F)C(F)(F)F
value.reported: 35.1
--
molecule: C=CCCCCCC [oct-1-ene] + COCC[N+]1(C)CCCCC1.O=S(=O)([N-]S(=O)(=O)C(F)(F)F)C(F)(F)F
value.reported: 14.4
--
molecule: C1COCCO1 [1,4-dioxane] + COCC[N+]1(C)CCCCC1.O=S(=O)([N-]S(=O)(=O)C(F)(F)F)C(F)(F)F
value.reported: 0.687
